// provenance: PubChem BioAssay (EPA / NIEHS)

read-out: Intercellular Adhesion Molecule 1 (ICAM1), ICAM1 (gene 3383); experiment: BSK_3C_ICAM1: BioMAP Diversity Plus: 3C Assay for Intercellular Adhesion Molecule 1 (ICAM1) Biomarker Activity (AID 2283003); conditions: primary human endothelial cells (HUVEC); actives raise or lower the signal
Active and inactive are the calls of the source. How the source made its calls: active means hit-call score of the fitted dose curve at least 0.9, where 1 is the maximum; inactive means score below 0.9.
REPORTED METRIC: outcome

Nc1c(Cl)c(F)nc(OCC(=O)O)c1Cl = inactive
CC1(C)C(C(=O)OC(C#N)c2cccc(Oc3ccccc3)c2)C1(C)C (stereo not drawn) = inactive
O=C(Nc1ccccc1-c1ccc(Cl)cc1)c1cccnc1Cl = inactive

* * *

experiment: CCTE_Shafer_MEA_dev_active_electrodes_number: CCTE's Neural Network Formation Assay for Number of Active Electrodes, Shafer Lab (AID 2284040)
Records with an inconclusive call do not appear. Calls of active or inactive are those of the source. How the source made its calls: active means hit-call score of the fitted dose curve at least 0.9, where 1 is the maximum; inconclusive means response in the unintended direction; inactive means score below 0.9.
Give one outcome, nothing more. List: Y (active), N (inactive)

N#CN=C1SCCN1Cc1ccc(Cl)nc1 = N
CC1(C)C(C(=O)OC(C#N)c2cccc(Oc3ccccc3)c2)C1(C)C (stereo not given) = Y
CC(C)(C)C(=O)C(Oc1ccc(Cl)cc1)n1cncn1 (stereo not given) = Y

input: Called result for `COP(=O)(OC)O/C(C)=C/C(=O)N(C)C`
output: N

input: How did this test come out for `CCNC(=O)NC(=O)C(C#N)=NOC` ?
output: N

input: Please share the test call associated with `CS(=O)(=O)c1cc(C(F)(F)F)ccc1C(=O)c1cnoc1C1CC1` .
output: N

input: Call for entry CCOC(=O)C(C)OC(=O)c1cc(Oc2ccc(C(F)(F)F)cc2Cl)ccc1[N+](=O)[O-] (stereo not given) :
output: N

input: I'd appreciate the recorded outcome for `COP(=S)(OC)Oc1ccc([N+](=O)[O-])c(C)c1` from this test.
output: N

input: Write down the call the test reported for this molecule. Item: CC(C)=CC1C(C(=O)OCc2coc(Cc3ccccc3)c2)C1(C)C (stereo not given)
output: N

input: Each molecule tested received a call. Report the one for `C=C(C)CN(CC)c1c([N+](=O)[O-])cc(C(F)(F)F)cc1[N+](=O)[O-]` .
output: Y
